# credit: patent US20060069132A1

- Tested on: barnyardgrass
- assay-name: Test C flooded paddy test
- Format: in vivo, Echinochloa crus-galli
- stated-conditions: 500 g ai/ha, visual rating after 12 to 14 days, scale 0 to 100 (0 no effect, 100 complete control)
Provide the recorded Plant response rating, Barnyardgrass for the entries that follow.
Answers are plain numbers.

Here are 4 molecules together with their reported answers.
## Task Please give the measured Plant response rating, Barnyardgrass for this molecule: CCc1nn(C(C)(C)C)cc1C(=O)Nc1cc(C(=O)N(C)C)ccn1
## Result 80

## Task Proceed to C#CCNC(=O)c1cccc(NC(=O)c2cc(C(C)(C)C)nn2CC)c1
## Result 40

## Task Also CCn1nc(C(C)(C)C)cc1C(=O)Nc1cncc(C(=O)N(C)C)c1 ?
## Result 45

## Task Please give the result for CCNC(=O)c1cccc(NC(=O)c2cc(C3(C)CC3)nn2CC)c1 too.
## Result 70

Let's switch to this molecule now.
## Task What value of Plant response rating, Barnyardgrass has been recorded for this entry: CCCN1CCc2c(NC(=O)c3cc(C(C)(C)C)nn3CC)cccc2C1=O
## Result 60

---

- Tested on: corn
- assay-name: Test B pre-/postemergence herbicide test
- Type: in vivo, Zea mays
- stated-conditions: postemergence, 500 g ai/ha; scale 0 to 100, 0 is no effect, 100 is complete control
readout-name: Corn plant response rating
Give bare numbers.

Past entries and their recorded results:
## Task Quick check: Corn plant response rating on corn, item CCNC(=O)c1ccc(F)c(NC(=O)c2c3c(nn2CC)C(C)(C)CC3)c1 ?
## Result 20

## Task Another: CCn1nc(C(C)(C)C)cc1C(=O)Nc1cc(OC)ccc1OC
## Result 100

Continue with the next compound.
## Task Give the reported Corn plant response rating for CCn1nc(C(C)(C)C)cc1C(=O)Nc1cc(C(=S)N(C)C)ccc1F (system: corn).
## Result 50

---

- Test system: morningglory
- assay-name: Test B pre-/postemergence herbicide test
- Assay type: in vivo, Ipomoea coccinea
- stated-conditions: 125 g ai/ha; 0 is no effect, 100 is complete control; preemergence
readout-name: Plant response rating (0 to 100 scale), Morningglory
Answers are plain numbers.

Would you please look over these solved cases?
## Task Reported Plant response rating (0 to 100 scale), Morningglory, molecule CCNC(=O)c1ccc(F)c(NC(=O)c2cn(C(C)(C)C)nc2C)c1 : ____
## Result 20

## Task Follow-up item: CCc1nn(C(C)(C)CC)nc1C(=O)Nc1cc(C(=O)N(C)C)ccc1F
## Result 0

## Task Also check CCC1=NN(C(C)(C)C)CC1C(=O)Nc1cc(C(=O)N(C)C)ccc1F (racemic)
## Result 50

## Task Same for CCc1nn(C(C)(C)C)nc1C(=O)Nc1cccc(C(=S)N(C)C)c1
## Result 80

## Task Also check Cc1nn(C(C)C)nc1C(=O)Nc1cccc(C(=O)N2CC=CC2)c1
## Result 10

Each of the following entries comes with a recorded value; kindly state Plant response rating (0 to 100 scale), Morningglory for each.
1. CCNC(=O)c1ccc(F)c(NC(=O)c2nn(C(C)(C)C)nc2C)c1
2. CCNC(=O)c1cccc(NC(=O)c2nn(C(C)(C)C)nc2CC)c1
3. Cc1nn(C(C)C)nc1C(=O)Nc1cc(C(=O)N(C)C)ccc1F
4. CCNC(=O)c1cncc(NC(=O)c2nn(C(C)(C)C)nc2C)c1

## Result
1: 0; 2: 50; 3: 0; 4: 0

---

- Test system: barnyardgrass
- assay-name: Test A pre-/postemergence herbicide test
- Format: in vivo, Echinochloa crus-galli
- stated-conditions: Preemergence, 2000 g ai/ha; visual rating, 0 to 100 scale (0 no effect, 100 complete control)
Mark met for reported Barnyardgrass plant response rating of 20 or greater; mark not met for anything smaller.

Example results:
## Task Hello, I need to know if CCn1nc(C(C)(C)C)cc1C(=O)Nc1cccc(SC(F)(F)F)c1 [Compound 130] has measured Barnyardgrass plant response rating not below 20. Thanks!
## Result met

## Task Another molecule: CC(C)NS(=O)(=O)c1cccc(NC(=O)c2cc(C(C)(C)C)nn2C)c1 [Compound 124]
## Result not met

## Task Entry to check: C=Cn1nc(C(C)(C)C)cc1C(=O)Nc1cccc(C(C)=O)c1 [Compound 127]
## Result met

## Task Again, but for CCCCNS(=O)(=O)c1cccc(NC(=O)c2cc(C(C)(C)C)nn2C)c1 [Compound 125]
## Result not met

## Task // next record CCOC(=O)c1cccc(NC(=O)c2cc(C(C)(C)C)nn2CC)c1OC [Compound 97]
## Result not met

## Task Thanks! And COC(=O)c1cccc(NC(=O)c2sc(C(C)(C)C)nc2C)c1 [Compound 197] ?
## Result not met

Next:
## Task Test whether the molecule CCc1nc(C(C)(C)C)sc1C(=O)Nc1cccc(C(=O)NCC(F)(F)F)c1 [Compound 206] records Barnyardgrass plant response rating of 20 or higher.
## Result met

## Task Also CCNC(=O)c1cccc(NC(=O)c2sc(C(C)(C)C)nc2CC)n1 [Compound 213] , if possible.
## Result met

## Task Also check CC(=NO)c1cccc(NC(=O)c2cc(C(C)(C)C)nn2CCF)c1 [Compound 115]
## Result met

## Task Follow-up entry: C=Cn1nc(C(C)(C)C)cc1C(=O)Nc1cccc(C(C)=NO)c1 [Compound 114]
## Result met

---

Kindly supply the reported Sedge, Umbrella plant response rating values for the records listed here.
- System: small flower umbrella sedge
- assay-name: Test B flooded paddy test
- Type: in vivo, Cyperus difformis
- stated-conditions: 1000 g ai/ha, visual rating, scale 0 to 100 (0 no effect, 100 complete control), 13 to 15 days
One number for each entry.

Solved cases below.
## Task Would you kindly share the measured Sedge, Umbrella plant response rating for C=Cn1nc(C(C)(C)C)cc1C(=O)Nc1cccc(C(C)=O)c1 ?
## Result 100

## Task Item: CC(C)NS(=O)(=O)c1cccc(NC(=O)c2cc(C(C)(C)C)nn2C)c1
## Result 0

## Task Same question, CCn1nc(C(C)(C)C)cc1C(=O)Nc1cccc(C(=O)OC(C)(C)C)c1 this time
## Result 0

Next compound, Sedge, Umbrella plant response rating to be filled in.
## Task I would be grateful if you could share the reported Sedge, Umbrella plant response rating for CCn1nc(C(C)(C)C)cc1C(=O)Nc1cccc(C(N)=O)n1 .
## Result 80

---

Would you kindly list Corn plant response rating for each of these compounds?
- Test system: corn
- assay-name: Test B pre-/postemergence herbicide test
- Assay type: in vivo, Zea mays
- stated-conditions: postemergence, 125 g ai/ha; visual rating, scale 0 (no effect) to 100 (complete control)
Answers are plain numbers.

Hi team, please reply with Corn plant response rating for each item in this list.
1. CCN(CC)C(=O)c1cc(NC(=O)c2cc(C(C)(C)C)nn2CC)ccc1F
2. CCCCn1nc(C(C)(C)C)cc1C(=O)Nc1cccc(C(C)=NO)c1
3. CCc1nc(C(C)(C)C)sc1C(=O)Nc1cccc(C(=O)NCC(C)C)c1

## Result
10
10
10

---

- Test system: wheat
- assay-name: Test B postemergence herbicide test
- Assay type: in vivo, Triticum aestivum
- Set-up: key: 0 = no effect, 100 = complete control
- stated-conditions: Postemergence, 500 g ai/ha; scale 0 (no effect) to 100 (complete control)
Please go through the items and note down their Wheat plant response rating.
Give bare numbers.

Reference set (3 entries):
## Task Missing value: Wheat plant response rating, wheat, entry CCNC(=O)c1cccc(NC(=O)c2nn(C(C)(C)C)nc2C)c1 . Fill in?
## Result 10

## Task Would you kindly repeat that for CCOC(=O)c1cccc(NC(=O)c2nn(C(C)(C)C)nc2Br)c1 ?
## Result 60

## Task Also Cc1nn(C(C)(C)C)nc1C(=O)Nc1cc(C(=O)N(C)C)ccn1 , if possible.
## Result 0

Value sought for every listed molecule: Wheat plant response rating.
1. CCN(CC)C(=O)c1cccc(NC(=O)c2nn(C(C)(C)C)nc2C)n1
2. CCc1nn(C(C)(C)CC)nc1C(=O)Nc1cc(C(=O)N(C)C)ccc1F
3. CCNC(=O)c1cccc(NC(=O)c2nn(C(C)(C)C)nc2Br)c1

## Result
0
0
50

---

- System: barnyardgrass
- assay-name: Test B pre-/postemergence herbicide test
- Format: in vivo, Echinochloa crus-galli
- stated-conditions: 125 g ai/ha; 0 is no effect, 100 is complete control; preemergence
readout-name: Plant response rating (0 to 100 scale), Barnyardgrass
Numbers only.

Study these solved cases before continuing.
## Task For the molecule shown here, Cc1nn(C(C)(C)C)nc1C(=O)Nc1cccc(C(=O)N2CC=CC2)c1 , give the reported Plant response rating (0 to 100 scale), Barnyardgrass.
## Result 90

## Task Let us now turn to CCc1nn(C(C)(C)C)nc1C(=O)Nc1cccc(C(=S)N(C)C)c1
## Result 90

## Task Here is the next molecule: CCNC(=O)c1cncc(NC(=O)c2nn(C(C)(C)C)nc2C)c1
## Result 0

## Task Moving on to the next molecule: C=CCNC(=O)c1ccc(F)c(NC(=O)c2nn(C(C)(C)C)nc2CC)c1
## Result 10

## Task Also CCOC(=O)c1cccc(NC(=O)c2nn(C(C)(C)CC)nc2CC)c1 , if possible.
## Result 20

I'm hoping you can list Plant response rating (0 to 100 scale), Barnyardgrass for every molecule here, please.
1. CCN(CC)C(=O)c1cncc(NC(=O)c2nn(C(C)(C)C)nc2C)c1
2. CCOC(=O)c1ccc(F)c(NC(=O)c2nn(C(C)(C)CC)nc2CC)c1
3. CCn1nc(C(C)(C)C)cc1C(=O)Nc1cc(OCCF)ccc1F
4. CCNC(=O)c1ccnc(NC(=O)c2nn(C(C)(C)C)nc2C)c1
5. CCc1nn(C(C)(C)C)nc1C(=S)Nc1cccc(C(=S)N(C)C)c1
6. Cc1nn(C(C)C)nc1C(=O)Nc1cc(C(=O)N(C)C)ccc1F
7. CCOC(=O)c1cccc(NC(=O)c2nn(C(C)(C)C)nc2Br)c1

## Result
1: 0; 2: 0; 3: 0; 4: 20; 5: 90; 6: 0; 7: 10
